- target.or.system: T1, human CD81 mutant V169L (human, UniProt P60033 1-236, limits assumed)
- T1 construct: as m30; not shown: C-terminal V5 and 6xHis tags
- T1 sequence: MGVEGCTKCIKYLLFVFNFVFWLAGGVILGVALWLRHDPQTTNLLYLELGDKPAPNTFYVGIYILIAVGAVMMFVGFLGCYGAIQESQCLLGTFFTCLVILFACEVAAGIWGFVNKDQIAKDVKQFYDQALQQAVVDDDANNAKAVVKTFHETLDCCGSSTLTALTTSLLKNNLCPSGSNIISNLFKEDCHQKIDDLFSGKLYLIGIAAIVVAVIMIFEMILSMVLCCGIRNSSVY
- test.protocol: ELISA
metric: relative binding affinity

002-F07 (antibody, human IgG4 S228P, lambda, V domains shown, IgG4 S228P) VH: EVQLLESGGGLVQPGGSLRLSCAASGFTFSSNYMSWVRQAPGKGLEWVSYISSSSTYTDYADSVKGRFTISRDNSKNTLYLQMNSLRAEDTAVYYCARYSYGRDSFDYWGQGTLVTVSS VL: QSVLTQPFSASGTPGQRVTISCTGSTSNIGAGFDTHWYQQLPGTAPKLLIYGNSNRPSGVPDRFSGSKSGTTASLAISGLRSEDEADYYCQSYDTNLSVWVFGGGTKLTVLG | < 20%
003-F08 (antibody, human IgG4 S228P, lambda, V domains shown, IgG4 S228P) VH: EVQLLESGGGLVQPGGSLRLSCAASGFTFSSNYMSWVRQAPGKGPEWVSYISSSSTYADYADSVKGRFTISRDNSKNTLYLQMNSLRAEDTAVYYCARYSYGRDNFDYWGQGTLVTVSS VL: QSVLTQPSSASGTPGQRVTISCTGSTSNIGAGYDTHWYQQLPGTAPKLLIYGNSNRPSGVPDRFSGSKSGTSASLAISGLRSEDEADYYCQSYDTNLSAWVFGGGTKLTVLG | < 20%

// moving on: another record for relative binding affinity
Kindly note the recorded relative binding affinity for 002-H02 (antibody, human IgG4 S228P, lambda, V domains shown, IgG4 S228P) VH: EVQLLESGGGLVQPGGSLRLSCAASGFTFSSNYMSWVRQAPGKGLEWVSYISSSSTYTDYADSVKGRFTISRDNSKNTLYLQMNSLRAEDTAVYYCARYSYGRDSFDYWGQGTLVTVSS VL: QSVLTQPSSASGTPGQRVTISCTGSTSNIGAGYGTHWYQQLPGTAPKLLIYGNSNRPSGVPDRFSGSKSGTSASLAISGLRSEDEADYYCQSYDTNLSVWVFGGGTKLTVLG , which is < 20%
